assay: in vitro; details: human, Bioavailability (%) after first pass metabolism
Non-standard residues stand in square brackets, D forms with d. Residues, ends and D or L forms follow the SMILES beside them. Hyp = O=C(O)[C@@H]1C[C@@H](O)CN1
measured-parameter: bioavailability at 5 h (%)

INSERT INTO measurements (compound, endpoint_result) VALUES
  ('NCC(=O)N1CCC[C@H]1C(=O)N1C[C@H](O)C[C@H]1C(=O)O [Gly-Pro-Hyp] (H-Gly-Pro-[Hyp]-OH; N-terminus and C-terminus assumed)', 12.2);

###

Measured bioavailability at 5 h of individual entries
assay: in vitro; settings: human, Peptide bioavailability after first pass metabolism
Non-standard residues stand in square brackets, D forms with d. Residues, ends and D or L forms follow the SMILES beside them. Hyp = O=C(O)[C@@H]1C[C@@H](O)CN1
measured-parameter: bioavailability at 5 h

INSERT INTO assay_data (compound, measured_parameter, endpoint_result) VALUES
  ('NCC(=O)N1CCC[C@H]1C(=O)O [Gly-Pro] (H-Gly-Pro-OH; N-terminus and C-terminus assumed)', 'bioavailability at 5 h', '> 32%'),
  ('O=C(O)CNC(=O)[C@@H]1C[C@@H](O)CN1 [Hyp-Gly] (H-[Hyp]-Gly-OH; N-terminus and C-terminus assumed)', 'bioavailability at 5 h', '> 32%');

###

experiment: Bioavailability after first pass metabolism in HIEC-6/HepG2 co-culture; settings: human, Bioavailability (%) after first pass metabolism, CH-GL; basolateral 5 h as percentage of apical 0 h, mean ± SEM
Non-standard residues stand in square brackets, D forms with d. Residues, ends and D or L forms follow the SMILES beside them. Hyp = O=C(O)[C@@H]1C[C@@H](O)CN1
measured-parameter: bioavailability at 5 h (%)

INSERT INTO measurements (compound, uom, endpoint_result) VALUES
  ('O=C(O)[C@@H]1C[C@@H](O)CN1C(=O)[C@@H]1CCCN1 [Pro-Hyp] (H-Pro-[Hyp]-OH; N-terminus and C-terminus assumed)', '%', 26.8);

###

assay: in vitro; conditions: human, Apparent permeability coefficient (Papp)
Non-standard residues stand in square brackets, D forms with d. Residues, ends and D or L forms follow the SMILES beside them. Hyp = O=C(O)[C@@H]1C[C@@H](O)CN1
measured-parameter: Papp A→B at 2 h (×10⁻⁶ cm/s)

INSERT INTO measurements (compound, measured_parameter, uom, endpoint_result) VALUES
  ('O=C(O)CNC(=O)[C@@H]1C[C@@H](O)CN1 [Hyp-Gly] (H-[Hyp]-Gly-OH; N-terminus and C-terminus assumed)', 'Papp A→B at 2 h', '×10⁻⁶ cm/s', 6.74);

###

assay: Peptide transport and apparent permeability across the HIEC-6 intestinal layer of a HIEC-6/HepG2 transwell co-culture; conditions: human, Apparent permeability coefficient (Papp), CH-GL treatment, 2 h, mean ± SEM
Non-standard residues stand in square brackets, D forms with d. Residues, ends and D or L forms follow the SMILES beside them. Hyp = O=C(O)[C@@H]1C[C@@H](O)CN1
measured-parameter: Papp A→B at 2 h (×10⁻⁶ cm/s)

INSERT INTO results (compound, measured_parameter, uom, endpoint_result) VALUES
  ('O=C(O)[C@@H]1C[C@@H](O)CN1C(=O)[C@@H]1CCCN1 [Pro-Hyp] (H-Pro-[Hyp]-OH; N-terminus and C-terminus assumed)', 'Papp A→B at 2 h', '×10⁻⁶ cm/s', 1.91),
  ('C[C@H](N)C(=O)N1C[C@H](O)C[C@H]1C(=O)O [Ala-Hyp] (H-Ala-[Hyp]-OH; N-terminus and C-terminus assumed)', 'Papp A→B at 2 h', '×10⁻⁶ cm/s', 0.725);

###

test: Peptide transport and apparent permeability across the HIEC-6 intestinal layer of a HIEC-6/HepG2 transwell co-culture; settings: human
Non-standard residues stand in square brackets, D forms with d. Residues, ends and D or L forms follow the SMILES beside them. Hyp = O=C(O)[C@@H]1C[C@@H](O)CN1
measured-parameter: Papp at 2 h (×10⁻⁶ cm/s)

INSERT INTO assay_data (compound, measured_parameter, endpoint_result) VALUES
  ('C[C@H](N)C(=O)N1C[C@H](O)C[C@H]1C(=O)O [Ala-Hyp] (H-Ala-[Hyp]-OH; N-terminus and C-terminus assumed)', 'Papp at 2 h', 0.725);
